Entry source: ChEMBL document CHEMBL1128032

System: Newcastle disease virus
Test: Antiviral activity against newcastle disease virus strain Russeff (NDV) was determined as zone of plaque inhibition
Type: functional, avian paramyxovirus 1
Recorded Activity values for a group of compounds are listed next.
Write down the value, and be sure its unit follows.

{"columns": ["Compound", "Result"],
 "data": [
  ["CC(C)C[C@H](NC(=O)OC(C)(C)C)C(=O)OCC1OC(n2cnc(C(N)=O)n2)C2OC(C)(C)OC12 (stereo not given in full)", "28 mm"],
  ["CC(C)(C)OC(=O)NCC(=O)OC[C@H]1O[C@@H](n2cnc(C(N)=O)n2)[C@@H]2OC(C)(C)O[C@@H]21", "31.5 mm"],
  ["CC(C)(C)OC(=O)N[C@@H](Cc1ccccc1)C(=O)OCC1OC(n2cnc(C(N)=O)n2)C2OC(C)(C)OC12 (stereo not given in full)", "0 mm"],
  ["CC(C)(C)OC(=O)N[C@@H](Cc1c[nH]c2ccccc12)C(=O)OCC1OC(n2cnc(C(N)=O)n2)C2OC(C)(C)OC12 (stereo not given in full)", "0 mm"]
]}

Return reported Activity; argument: CC(C)(C)OC(=O)N1CCC[C@H]1C(=O)OCC1OC(n2cnc(C(N)=O)n2)C2OC(C)(C)OC12 (stereo not given in full)
16.5 mm

----------
System: Suid alphaherpesvirus 1
Assay: Antiviral activity against pseudorabies virus strain Anjeszky A2 was determined as zone of cytotoxicity
Type: functional
Design: unit not given here
Measurement Kind: Activity
// return a plain number; no unit text

{"columns": ["Molecule", "Activity"],
 "data": [
  ["CC(C)(C)OC(=O)N[C@@H](Cc1c[nH]c2ccccc12)C(=O)OCC1OC(n2cnc(C(N)=O)n2)C2OC(C)(C)OC12 (stereo not given in full)", 9],
  ["CC(C)C[C@H](NC(=O)OC(C)(C)C)C(=O)OCC1OC(n2cnc(C(N)=O)n2)C2OC(C)(C)OC12 (stereo not given in full)", 16],
  ["CC(C)(C)OC(=O)N[C@@H](Cc1ccccc1)C(=O)OCC1OC(n2cnc(C(N)=O)n2)C2OC(C)(C)OC12 (stereo not given in full)", 16.5]
]}

# lookup: Activity of CC(C)(C)OC(=O)NCC(=O)OC[C@H]1O[C@@H](n2cnc(C(N)=O)n2)[C@@H]2OC(C)(C)O[C@@H]21
15

And for CC(C)(C)OC(=O)N1CCC[C@H]1C(=O)OCC1OC(n2cnc(C(N)=O)n2)C2OC(C)(C)OC12 (stereo not given in full) ?
10
